Biological target: T1, HLA-A*02:01 class I complex (conditional p*HLA*02:01, biotinylated heavy chain with beta2-microglobulin) (human, biotinylated heavy chain)
T1 construct: UV-labile peptide p* is cleaved and exchanged for the test peptide; also called HLA 2.1
Experiment: UV peptide exchange, HLA class I ELISA, % of Pos peptide;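 further: Streptavidin-captured HLA complexes after exchange detected via HRP anti-human B2M antibody, absorbance read, colour scales with intact complex, normalized to exchange control peptide as 100%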
What Exch I (%) was measured for each of the following?
One number for each entry, in %.

Example binders with recorded Exch I (%):
INSERT INTO measurements (binder, observed_result) VALUES
  ('SMTCTYFPL (also called M211) [TP53_S127F11 mimic peptide SMTCTYFPL]', 56.4),
  ('LLGRNSFEL (also called M221) [TP53_V272M2 mimic peptide LLGRNSFEL]', 101),
  ('YMDSGIHFV (also called M033) [CTNNB1_S37F6 mimic peptide YMDSGIHFV]', 104),
  ('VMSDAISAL (also called M124; SOX17.S40317) [SOX17.S403I7 mimic peptide VMSDAISAL]', 75.3);

Need Exch I (%) for each of these binders.
1. LLVVGAAGV (also called M051) [KRAS_G12A2 mimic peptide LLVVGAAGV]
2. LLVVGAVGV (also called M071) [KRAS_G12V2 mimic peptide LLVVGAVGV]

[34.1, 31.8]

Need Exch I (%) for each of these binders.
1. MIFSKRHWA (also called M010) [CIC.R215W mutant peptide MIFSKRHWA]
2. QLWVDSTPL (also called M180) [TP53.P152L mutant peptide QLWVDSTPL]
3. RLIHRDLAV (also called M242) [ERBB2_V842I5 mimic peptide RLIHRDLAV]

[6.2, 84.3, 69.9]

Need Exch I (%) for each of these binders.
1. NMDEYVHNV (also called M111) [SF3B1_R625H5 mimic peptide NMDEYVHNV]
2. GMKDLLNPV (also called M082) [PIK3CA_E453K6 mimic peptide GMKDLLNPV]
3. ILNREIDFL (also called M093) [PIK3CA_G118D9 mimic peptide ILNREIDFL]
4. VMSDAISAV (also called M122; SOX17_S40313) [SOX17_S403I3 mimic peptide VMSDAISAV]
5. YQGSYGFLI (also called M201) [TP53_R110L3 mimic peptide YQGSYGFLI]
6. KMYPVQLWL (also called M133) [TP53_C141Y8 mimic peptide KMYPVQLWL]

86.6
74.7
51.1
96.9
7.1
122

Need Exch I (%) for each of these binders.
1. NMDEYVHNL (also called M113) [SF3B1_R625H9 mimic peptide NMDEYVHNL]
2. LVVVGAAGV (also called M050) [KRAS.G12A mutant peptide LVVVGAAGV]
3. YMDSGIHFI (also called M031) [CTNNB1_S37F14 mimic peptide YMDSGIHFI]

62
6.6
97.6

Endpoint output: Exch I (%) of VVPCEPPEV (also called M230) [TP53.Y220C mutant peptide VVPCEPPEV] . Value?
29.4

# credit: patent US20220194999A1
